Recorded self-cleavage values for a group of variants are listed next.
B1: Twister Ribozyme (parent)
chain: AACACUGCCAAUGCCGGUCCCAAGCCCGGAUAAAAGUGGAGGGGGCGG

Variants of: B1
Assay: self-cleavage, relative activity (ratio to wild type); higher = more cleavage; co-transcriptional
# respond with the number and nothing more

U12C G41C    0.264
C20A A33C    0.0903
C5U U31C    0.804
G28U G42A    0.26
A22G G42A    0.0942
C20U A23U    0.17
C20G G24U    0.0899
C5G A40U    0.0886

Enquiry: Bench note: what self-cleavage did C27U U31A show?
Return: 0.792

Enquiry: Now this one: G29A G41U
Return: 0.461

Enquiry: What would you report for U31A A40U ?
Return: 0.136

Enquiry: Can you check C3A C14G next?
Return: 0.0567

Enquiry: Next variant up: A32C G44U
Return: 0.936

Enquiry: And then C25A G44A , what is it?
Return: 0.169

Enquiry: Continue with C9G U37C
Return: 0.156

Where do the numbers come from? From the RNAGym collection of RNA variant scans (doi:10.7554/elife.80360).
